From: patent US20250034269A1

molecular target: T1, human LTBR on cells (human, UniProt P36941 31-435); experiment: FACS CHO-huLTBR, 6.6 µg/ml
T1 construct: also called recombinant human LTBR CHO cells; CHO-K1 cells overexpressing human LTBR
measured-parameter: MFI (MFI)

binder	unit-string	meas-value
P1AE9457 (antibody, human IgG1, kappa, L234A L235A, V domains shown, human IgG1 PG LALA; from transgenic rabbit immunization; also called LTBR (9457)) VH: EVQLLESGGGLVQPGGSLRLSCAASGFTFSNYAMTWVRQAPGKGLEWVSEISGSGGSTYYADSVKGRFTISRDNSKNTLYLQMNSLRAEDTAVYYCAKDDDGAYGDTMDVWGQGTTVTVSS VL: DIQMTQSPSSLSASIGDRVTITCRASQDISNYLNWYQQKPGKAPKLLIYAASALQSGVPSRFSGSGSGTDFTLTISSLQPEDFATYYCQHYKSYPYTFGQGTKVEIRR	MFI	103000
P1AF0079 (antibody, human IgG1, kappa, L234A L235A, V domains shown, human IgG1 PG LALA; from transgenic rabbit immunization; also called LTBR (0079)) VH: EVQLLESGGALVQPGGSLRLSCAASGFTFSSYAMSWVRQAPGKGLEWVSVITGSSSSIDYADSVKGRFTISRDNSKNTLYLQMNSLRAEDTAVYYCAKGGSGVWSISTDFDYWGQGTLVTVSS VL: DIQMTQSPSFLSASVGDRVTITCQASQDISNYLNWYQQKPGKAPKHLIYAASSLHSGVPSRFSGSGSGAYFTLTITSLQPEDFATYYCQQSHSTPPTFGPGTKVDIKR	MFI	54700
P1AE1873 (CBE11) (antibody, human IgG1, kappa, L234A L235A, V domains shown) VH: EVQLVESGGGLVKPGGSLRLSCAASGFTFSDYYMYWFRQAPGKGLEWVATISDGGSYTYYPDSVKGRFTISRDNAKNSLYLQMSSLRAEDTAVYYCAREENGNFYYFDYWGQGTTVTVSS VL: DIQMTQSPSSLSASVGDRVTITCKAGQDIKSYLSWYQQKPGKAPKLLIYYATRLADGVPSRFSGSGSGTDYTLTISSLQPEDFATYYCLQHGESPWTFGGGTKLEIKR	MFI	50900
P1AF0080 (antibody, human IgG1, kappa, L234A L235A, V domains shown, human IgG1 PG LALA; from transgenic rabbit immunization; also called LTBR (0080)) VH: EVQLLESGGGLVQPGGSLRLSCAASGFTFSYYAMTWVRQAPGKGLEWIGVINSGGGTYYTDSVKGRFTMSRDNSKNTLYLQVNSLRAEDTAVYYCAKASTADVWGQGTTVTVSS VL: DIQMTQSPSSLSASVGDRVTITCQASQGISNYLSWYQQKPGKAPKRLIFAASSLESGVPSRFSGSGSGTDFTLTISSLQPEDFATYYCQQYNSYSLTFGGGTKLEIKR	MFI	67400
P1AE9459 (antibody, human IgG1, kappa, L234A L235A, V domains shown, human IgG1 PG LALA; from transgenic rabbit immunization) VH: EVQLVESGGGLVQPGGSLRLSCAASGFTFSSYTMNWVRQAPGKGLEWVSGVAPSGDRTYYTDSVKGRFTISRDNAKNTLDLQMTSLRAEDAAIYICAQGFAFTNWGQGTMVTVSS VL: DIQMTQSPSSLSASVGDRVTITCRASQGISSALAWFQQKPGKAPKRLIFDASSLDSGVPSRFSGSGSGTDFTLTISSLQPEDFATYYCQQYNNYPLTFGGGTKVEMKR	MFI	81600
